- Tested on: RAW-Dual
- experiment-notes: IRF Lucia reporter activity, fold change vs agonist alone; cytotoxicity flag (confluency mask): not cytotoxic; higher = enhanced IRF activity
- reported-conditions: agonist: 3'3'-cGAMP (STING) 10 ug/mL
In all, about 2,900 compounds were measured (“IRF Lucia reporter activity, fold change vs agonist alone”: median about 0.9, highest 2% from about 2.8 on). The list comes from a sample in which the highest values are over-represented; it also holds close analogues and randomly drawn compounds.
IRF Lucia reporter activity overview

# compound, measured-target, IRF Lucia reporter activity
rows = [
    ("CC1(c2cc(-c3cncnc3)c(F)cc2F)CCSC(N)=N1 (stereo unspecified) (library stock concentration (final ~1000-fold dilution): 10 mM)", "RAW-Dual", 0.823),
    ("CN1c2ccccc2C(=O)Nc2cnc(Nc3ccc(N4CCC(O)CC4)cc3)nc21 (library stock concentration (final ~1000-fold dilution): 10 mM)", "RAW-Dual", 0.137),
    ("Cc1cc2c(F)c(Oc3ncnn4cc(OCC(C)O)c(C)c34)ccc2[nH]1 (stereo unspecified) (library stock concentration (final ~1000-fold dilution): 10 mM)", "RAW-Dual", 1.01),
    ("O=C(NCCN1CCOCC1)Nc1nc2ccc(Sc3nnc4ccc(-c5ccc(F)cc5)nn34)cc2s1 (library stock concentration (final ~1000-fold dilution): 10 mM)", "RAW-Dual", 1.09),
    ("CCOc1cc(N2CCC(O)CC2)ccc1Nc1ncc2c(n1)N(C)c1ccccc1C(=O)N2C (library stock concentration (final ~1000-fold dilution): 10 mM)", "RAW-Dual", 0.518),
    ("CC(=O)OC1CC/C(C)=C/CC/C(C)=C/CC2(C(C)C)CCC1(C)O2 (stereo unspecified) (library stock concentration (final ~1000-fold dilution): 10 mM)", "RAW-Dual", 0.818),
]
